# Tested on: Escherichia coli 0-111
# ASSAY_DETAILS: Test for antimicrobial activity (turbidity): growth inhibiting concentration of antibiotics
# Format: cell-based
# CONDITION_SET: Escherichia coli, 0111, antimicrobial peptide (Seq. ID No. 27) 0 μg/ml
Listed below: MIC values for each entry.

MOLECULE | TESTED_SYSTEM | MIC
COc1cccc(OC)c1C(=O)N[C@@H]1C(=O)N2[C@@H]1SC(C)(C)[C@@H]2C(=O)O [staphcillin] | Escherichia coli 0-111 | > 1 µg/mL
CC1(C)S[C@@H]2[C@H](NC(=O)Cc3ccccc3)C(=O)N2[C@H]1C(=O)O [penicillin] | Escherichia coli 0-111 | > 1 µg/mL
CC(=O)OCC1=C(C(=O)O)N2C(=O)[C@@H](NC(=O)Cc3cccs3)[C@H]2SC1 [cephalothin] | Escherichia coli 0-111 | > 1 µg/mL
